assay: Aqueous solubility of hydroxamic acid compounds; assay type: physicochemical; conditions: deionized water, pH 5.5, stirred overnight, filtered, 1H NMR quantification
measuredEndpoint: Aqueous Solubility (%)
Hi! Could you send only the number? It should be in %, unit omitted.

Query: Item under review: O=C(NO)c1ccccc1 [Benzohydroxamic acid] . Reported Aqueous Solubility?
Reply: 3.6

Query: Item under review: Cc1ccc(CCCC(=O)NO)cc1 [4-(p-tolyl)butyrohydroxamic acid] . Reported Aqueous Solubility?
Reply: 0.2

Query: Item under review: Cc1ccc(C(=O)NO)cc1 [4-Methylbenzohydroxamic acid] . Reported Aqueous Solubility?
Reply: 0.5

====

Reported Aqueous Solubility values are given for each entry in this list.
assay: Aqueous solubility of hydroxamic acid compounds; assay type: physicochemical; conditions: deionized water, pH 5.5, stirred overnight, filtered, 1H NMR quantification
Hi! Could you send only the number? It should be in %, unit omitted.

Example entries and their recorded answers appear below.
compound: Cc1ccccc1C(=O)NO [2-Methylbenzohydroxamic acid]
endpointUnit: %
Aqueous Solubility: 3.3
--
compound: N#Cc1ccc(C(=O)NO)cc1 [4-Cyano-N-hydroxybenzamide]
endpointUnit: %
Aqueous Solubility: 0.5
--
compound: O=C(NO)c1ccccn1 [Picolinichydroxamic acid]
endpointUnit: %
Aqueous Solubility: 3.0
--
compound: O=C(CCCc1ccccc1)NO [4-Phenylbutyrl hydroxamic acid]
endpointUnit: %
Aqueous Solubility: 1.6
--
compound: COc1ccc(C(=O)NO)cc1 [4-Methoxybenzohydroxamic acid]
endpointUnit: %
Aqueous Solubility: 0.4

As a next step, examine the compound that follows.
Query: Item under review: CCCCCC(=O)NO [Hexanohydroxamic acid] . Reported Aqueous Solubility?
Reply: 4.8
